# max response annotations
protocol_text: qHTS Assay for Identifying Gametocytocidal Compounds (AID 743244);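 further: on the % scale 0 is the no-effect control and ±100 the full control effect; actives lower the fluorescent signal which means gametocytes are killed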
details: P. falciparum 3D7 stage III-V gametocytes, alamarBlue, 72 h; stronger effect = lower value
Results filed as inconclusive are left out. Where a SMILES comes first, the peptide text is derived from it. Bridges are numbered along the chain shown (N, C = ends). [ ]: non-standard residue; d: D form. The star is where a group is joined. ξ: configuration not given here. d(aThr) = C[C@@H](O)[C@@H](N)C(=O)O; ξThr(3R) = C[C@@H](O)C(N)C(=O)O; X3 = CC[C@@H](C)CCCCC(=O)*; dDab = NCC[C@@H](N)C(=O)O
Number in %, nothing else.

# count of solved cases: 5
compound | max response [%]
NC[C@@H]1O[C@H](O[C@H]2[C@@H](O)[C@H](O[C@@H]3[C@@H](O)[C@H](N)C[C@H](N)[C@H]3O[C@H]3O[C@H](CO)[C@@H](O)[C@H](O)[C@H]3N)O[C@@H]2CO)[C@H](N)[C@@H](O)[C@@H]1O | 20.3
CCN(CC)C(=O)c1cccnc1 | -8.37
c1ccc(-n2cnnn2)cc1 | 0.811
C[Se]CC[C@H](N)C(=O)O | 8.55
O=C1NCCN1c1ncc([N+](=O)[O-])s1 | -6.09

Request: What does the data say about its max response? Entry: C#C[C@]1(O)CC[C@H]2[C@@H]3CCC4=C(CCC(=O)C4)[C@H]3CC[C@@]21C
Response: 12.4

Request: Could you do the same for CC[C@@H](C)CCCCC(=O)N[C@H](CCN)C(=O)N[C@@H](C(=O)N[C@H](CCN)C(=O)N[C@@H]1CCNC(=O)C([C@@H](C)O)NC(=O)[C@@H](CCN)NC(=O)[C@@H](CCN)NC(=O)[C@@H](CC(C)C)NC(=O)[C@@H](Cc2ccccc2)NC(=O)[C@@H](CCN)NC1=O)[C@@H](C)O (stereo partly drawn) (X3-[dDab][d(aThr)][dDab][dDab][dDab][dF][dL][dDab][dDab][ξThr(3R)]; lactam 4-C) , please?
Response: 13.9

Request: Could you do the same for Cc1ncc(C[n+]2csc(CCOP(=O)(O)O)c2C)c(N)n1 , please?
Response: -3.97

====

Test system: CP192
protocol_text: qHTS profiling for inhibitors of Plasmodium falciparum proliferation (AID 504749); further: nearly all actives have a fitted effect of over 60% in size
details: P. falciparum in erythrocytes, SYBR Green DNA, 72 h; series mostly up to 28.7 µM
Results filed as inconclusive are left out. Active and inactive are the calls of the source. Calls come from the whole dose curve; as a rule, active = well fitted inhibition curve with a large enough effect; inconclusive = small, poorly fitted or top-dose-only effect; inactive = flat fitted curve, though single readings scatter.
Your answer must be one of the following: t (active), f (inactive)

# count of solved cases: 8
molecule | classification
CC/C=C\C/C=C\C/C=C\CCCCCCCC(=O)O | f
CC1C(=O)CC2C3(C)CCC2(C(C)C(=O)O)C(=O)C13 (configuration not stated) | f
FC(F)OC(Cl)C(F)(F)F (configuration not stated) | f
CN(C)c1ccc(C(=C2C=CC(=[N+](C)C)C=C2)c2c(O)c(S(=O)(=O)[O-])cc3cc(S(=O)(=O)O)ccc23)cc1 | f
NC(N)=O | f
O=C(O)Cc1nn(Cc2ccc(Br)cc2F)c(=O)c2ccccc12 | f
NC(=O)C1c2ccccc2CCc2ccccc21 | f
Cc1ncc(COP(=O)(O)O)c(CN)c1O | f

Request: Called result for O=C(c1cc2ccccc2o1)N1CCN(Cc2ccccc2)CC1
Response: f

Request: Could you do the same for CC(C)CCCCCCc1ccc(O)cc1 , please?
Response: f

====

# max response annotations
protocol_text: qHTS Assay for Identifying Gametocytocidal Compounds (AID 743244);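 further: on the % scale 0 is the no-effect control and ±100 the full control effect; actives lower the fluorescent signal which means gametocytes are killed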
details: P. falciparum 3D7 stage III-V gametocytes, alamarBlue, 72 h; stronger effect = lower value
Results filed as inconclusive are left out. Activity calls are given as the source filed them. The call rests on the fitted dose curve; in most records, active means well fitted curve in the direction sought with a large enough effect; inconclusive means small, poorly fitted or top-dose-only effect, or another doubt; inactive means no such curve, though single readings can be large or run the other way.

# count of solved cases: 5
compound | quantity_name | assay_result
Nc1nc(/C(=C/CC(=O)O)C(=O)N[C@@H]2C(=O)N3C(C(=O)O)=CCS[C@H]23)cs1 | max response | -2.9% (inactive)
CC1CCCCN1CCCOC(=O)c1ccccc1 (stereo unspecified) | max response | 6.88% (inactive)
C[C@@H]1O[C@@H](OC[C@H]2O[C@@H](Oc3c(-c4ccc(OCCO)c(OCCO)c4)oc4cc(OCCO)cc(O)c4c3=O)[C@H](O)[C@@H](O)[C@@H]2O)[C@H](O)[C@H](O)[C@H]1O | max response | 6.8% (inactive)
O=C(O)CCC(=O)c1ccc(-c2ccccc2)cc1 | max response | 1.84% (inactive)
CC[C@@H](C)[C@H](N)C(=O)O | max response | -5.92% (inactive)

We next turn to a different compound, shown below.
Request: What does the data say about its max response? Entry: CCCCCCCCCCCC(=O)N(CCO)CCO
Response: 11.9% (inactive)

====

Tested on: CP215
protocol_text: qHTS profiling for inhibitors of Plasmodium falciparum proliferation (AID 504749); further: nearly all actives have a fitted effect of over 60% in size
details: P. falciparum in erythrocytes, SYBR Green DNA, 72 h; series mostly up to 28.7 µM
Records with an inconclusive call do not appear. The source made the active and inactive calls. The call rests on the fitted dose curve; in most records, active means well fitted inhibition curve with a large enough effect; inconclusive means small, poorly fitted or top-dose-only effect; inactive means flat fitted curve, though single readings scatter.
Your answer must be one of the following: active, inactive

# count of solved cases: 4
compound | classification
CCN(CC)CCOC(=O)c1cccnc1 | inactive
Cc1ccccn1 | inactive
CC(=O)[C@H]1CC[C@H]2[C@@H]3C=CC4=CC(=O)CC[C@@]4(C)[C@H]3CC[C@]12C | inactive
Cc1cccc(C)c1NC(=O)NC1=CCCN1C | inactive

Request: Called result for Cc1c(Cl)cccc1Nc1ncccc1C(=O)O
Response: inactive

Request: Could you do the same for CC1(C)S[C@@H]2[C@H](NC(=O)C3(N)CCCCC3)C(=O)N2[C@H]1C(=O)O , please?
Response: inactive

Request: Could you do the same for CCC(O)c1ccccc1 (stereo not drawn) , please?
Response: inactive

Request: Could you do the same for O=C(CCCN1CCN2CCCC2C1)c1ccc(F)cc1 (stereo not drawn) , please?
Response: inactive

Request: Could you do the same for CS(=O)(=O)OCC(O)C(O)COS(C)(=O)=O (stereo not drawn) , please?
Response: inactive

Request: Could you do the same for O=C1CCC(=O)N1CO , please?
Response: inactive

====

System: W2
protocol_text: qHTS profiling for inhibitors of Plasmodium falciparum proliferation (AID 504749); further: nearly all actives have a fitted effect of over 60% in size
details: P. falciparum in erythrocytes, SYBR Green DNA, 72 h; series mostly up to 28.7 µM
Records with an inconclusive call do not appear. Activity calls are given as the source filed them. Calls follow the shape of the dose curve; as a rule, active = well fitted inhibition curve with a large enough effect; inconclusive = small, poorly fitted or top-dose-only effect; inactive = flat fitted curve, though single readings scatter.
Your answer must be one of the following: True for active, False for inactive

# count of solved cases: 3
compound | classification
CC1=CCC2CC1C2(C)C (stereo unspecified) | False
Nc1ccc(N=Nc2ccccc2)c(N)n1 | False
CN[C@@H]1[C@H](O[C@H]2[C@H](O[C@H]3[C@H](O)[C@@H](O)[C@H](N=C(N)N)[C@@H](O)[C@@H]3N=C(N)N)O[C@@H](C)[C@]2(O)C=O)O[C@@H](CO)[C@H](O)[C@H]1O | False

Request: Called result for ClC(Cl)Cl
Response: False

Request: Could you do the same for CN(C)CCC=C1c2ccccc2C(C)(C)c2ccccc21 , please?
Response: True

Request: Could you do the same for CNC(=O)c1c(I)c(C(=O)NCC(=O)Nc2c(I)c(C(=O)O)c(I)c(C(=O)NCCO)c2I)c(I)c(N(C)C(C)=O)c1I , please?
Response: False

Request: Could you do the same for CC(C)CCC[C@@H](C)[C@H]1CC[C@H]2[C@@H]3CC[C@@H]4C[C@H](O)CC[C@]4(C)[C@H]3CC[C@]12C , please?
Response: False

Request: Could you do the same for CC1=CC(=C(c2ccc(N)cc2)c2ccc(N)cc2)C=CC1=N , please?
Response: True

Request: Could you do the same for NCCN , please?
Response: False

Request: Could you do the same for CC(=O)N[C@@H]1C(O[C@H]2O[C@H](C(=O)O)C(O)[C@H](O)[C@H]2O)[C@H](O)[C@@H](CO)O[C@H]1O[C@@H]1C(C(=O)O)O[C@@H](O[C@H]2[C@H](O)[C@@H](CO)OC(O)[C@@H]2NC(C)=O)[C@H](O)[C@H]1O (stereo partly specified) , please?
Response: False

Request: Could you do the same for c1ccc2ccccc2c1 , please?
Response: False

Request: Could you do the same for O=C(O)/C=C/c1ccccc1 , please?
Response: False

Request: Could you do the same for Cn1cc(NC(=O)c2cc(NC(=O)c3cc(NC=O)cn3C)cn2C)cc1C(=O)NCCC(=N)N , please?
Response: True

Request: Could you do the same for CC(=O)Oc1cccc2c1C(=O)c1c(OC(C)=O)cc(C(=O)O)cc1C2=O , please?
Response: False

Request: Could you do the same for CC1CC(O)CC(C)(C)C1 (stereo unspecified) , please?
Response: False

====

System: CP203
protocol_text: qHTS profiling for inhibitors of Plasmodium falciparum proliferation (AID 504749); further: nearly all actives have a fitted effect of over 60% in size
details: P. falciparum in erythrocytes, SYBR Green DNA, 72 h; series mostly up to 28.7 µM
Results filed as inconclusive are left out. Active and inactive are the calls of the source. Calls follow the shape of the dose curve; as a rule, active = well fitted inhibition curve with a large enough effect; inconclusive = small, poorly fitted or top-dose-only effect; inactive = flat fitted curve, though single readings scatter.
Your answer must be one of the following: 1 = active, -1 = inactive

# count of solved cases: 3
molecule | classification
O=C(/C=C/c1cccc(F)c1)NC1CC1 | -1
ClC(Cl)Cl | -1
COC1=C(OC)C(=O)C(C/C=C(\C)CC/C=C(\C)CC/C=C(\C)CC/C=C(\C)CC/C=C(\C)CC/C=C(\C)CC/C=C(\C)CC/C=C(\C)CC/C=C(\C)CCC=C(C)C)=C(C)C1=O | -1

Request: Called result for CC(=O)Nc1ccc(OC(=O)c2ccccc2O)cc1
Response: -1

Request: Could you do the same for CCN(CC)CCOc1ccc2nc(N(C)C)sc2c1 , please?
Response: -1

Request: Could you do the same for Cn1cc(NC(=O)c2cc(NC(=O)c3cc(NC=O)cn3C)cn2C)cc1C(=O)NCCC(=N)N , please?
Response: 1

Request: Could you do the same for CC(C)[C@@H](N)C(=O)O , please?
Response: -1

Request: Could you do the same for Cc1c(Cl)cccc1Nc1ncccc1C(=O)O , please?
Response: -1

Request: Could you do the same for FC(F)(F)C(F)(F)C(F)(F)C(F)(F)C(F)(F)C(F)(F)F , please?
Response: -1

Request: Could you do the same for CCc1ncnc2cc(OC)c(OC)cc12 , please?
Response: -1

Request: Could you do the same for O=P(O)(O)OP(=O)(O)O , please?
Response: -1
